Taken from patent US20250065246A1.

tested on: skin; experiment: Evaluation of skin irritation, patch test (PCPC Safety Evaluation Guidelines, ICDRG standard); type: in vivo, human; details: patch test on 32 people, 30 wt %
EXPERIMENTAL_READOUT: Cases with skin irritation

COMPOUND: CC(O)C(C)O (stereo not shown) [compound 1, 2,3-butanediol]
MEASURED_NUMBER: 0
//
COMPOUND: CC(O)C(C)O (stereo not shown) [Example 1, 2,3-butanediol]
MEASURED_NUMBER: 0
//
COMPOUND: CC(O)CCO (stereo not shown)
MEASURED_NUMBER: 2
//
COMPOUND: OCCCO
MEASURED_NUMBER: 0

* * *

system: skin; assay: Evaluation of skin irritation, patch test (PCPC Safety Evaluation Guidelines, ICDRG standard); assay type: in vivo, human; details: patch test on 32 people, 30 wt %
EXPERIMENTAL_READOUT: Skin irritation category under ICDRG standard

COMPOUND: OCCCO [Comparative example 2, 1,3-propanediol]
RESULT: no skin irritation
//
COMPOUND: CC(O)C(C)O (stereo not shown) [compound 1, 2,3-butanediol]
RESULT: no skin irritation
//
COMPOUND: CC(O)C(C)O (stereo not shown) [Example 1, 2,3-butanediol]
RESULT: no skin irritation

* * *

// reported Skin irritation index 30 minutes for each item listed
Tested on: skin
Experiment: Evaluation of skin irritation, patch test (PCPC Safety Evaluation Guidelines, ICDRG standard)
Format: in vivo, human
Conditions: patch test on 32 people, 30 wt %, 30 minutes
Method: To evaluate skin irritation caused by solvent compositions for extracting a natural material in example 1 and comparative examples 1, 2 and 3, a patch test was conducted on a total of 32 people. The solvent compositions for extracting a natural material in example 1 and comparative examples 1, 2 and 3 were all at a concentration of 30 wt %, and the patch test was performed under the PCPC Safety Evaluation Guidelines and the ICDRG standard.
EXPERIMENTAL_READOUT: Skin irritation index 30 minutes

COMPOUND: OCCCO
MEASURED_NUMBER: 0.0
//
COMPOUND: CC(O)CCO (stereo not shown)
MEASURED_NUMBER: 0.5
//
COMPOUND: CC(O)C(C)O (stereo not shown) [Example 1, 2,3-butanediol]
MEASURED_NUMBER: 0.0
//
COMPOUND: CC(O)C(C)O (stereo not shown) [compound 1, 2,3-butanediol]
MEASURED_NUMBER: 0.0

* * *

Below is a list of entries, each paired with its recorded P. aeruginosa (MIC %) value.
system: P. aeruginosa; test: Evaluation of antibacterial property, minimum inhibitory concentration; format: cell-based
EXPERIMENTAL_READOUT: P. aeruginosa (MIC %)

COMPOUND: CC(O)C(C)O (single isomer, unassigned) [Example 2, levo-2,3-butanediol]
MEASURED_TARGET: P. aeruginosa
EXPERIMENTAL_READOUT: P. aeruginosa (MIC %)
ENDPOINT_UNIT: %
MEASURED_NUMBER: 10
//
COMPOUND: CC(O)CCO (stereo not shown)
MEASURED_TARGET: P. aeruginosa
EXPERIMENTAL_READOUT: P. aeruginosa (MIC %)
ENDPOINT_UNIT: %
MEASURED_NUMBER: 12.5
//
COMPOUND: OCCCO
MEASURED_TARGET: P. aeruginosa
EXPERIMENTAL_READOUT: P. aeruginosa (MIC %)
ENDPOINT_UNIT: %
MEASURED_NUMBER: 12.5
//
COMPOUND: CC(O)C(C)O (single isomer, unassigned) [Example 3, meso-2,3-butanediol]
MEASURED_TARGET: P. aeruginosa
EXPERIMENTAL_READOUT: P. aeruginosa (MIC %)
ENDPOINT_UNIT: %
MEASURED_NUMBER: 6.25
